Source: PubChem BioAssay AID624354

assay-comment: viability loss with TRAIL in NB7+C8 cells, primary screen, TRAIL sensitizer project, cell-based, ATPlite luminescence (AID 624354)
measurement-parameters: at 10 µM, stronger effect = higher value
Hit rate of the full screen: of about 360,000 compounds, about 3,800 (1.1%) were called active. For the sample, actives were picked, then their nearest neighbours and some compounds at random.
So I've got a bunch of molecules here, and I need their inhibition (viability loss, TRAIL sensitization) values.
Kindly answer with a numeric value in %, unit omitted.

Form field: reported inhibition (viability loss, TRAIL sensitization) of COc1ccc2oc(N)nc2c1
4.55

May I ask what inhibition (viability loss, TRAIL sensitization) has been recorded for Cc1sc2ncnc(N3CCC(C(=O)Nc4ccc(F)cc4Cl)CC3)c2c1C ?
13.1

Look up inhibition (viability loss, TRAIL sensitization): Cc1ccc(N2C(=O)C3C(c4ccccc4)(C2=O)C3(c2ccccc2)c2ccccc2)cc1 (stereo not drawn)
11.6

Fill in: inhibition (viability loss, TRAIL sensitization) of COc1ccc(CCNc2cc(N3CCN(C(=O)c4ccccc4OC)CC3)ccc2[N+](=O)[O-])cc1OC is ___
39.3

Returns the measured inhibition (viability loss, TRAIL sensitization) for the input molecule. Input: Cn1c(NC(=O)c2ccccc2)nc2ccccc21
49.5

Name the recorded inhibition (viability loss, TRAIL sensitization) for CCn1c(NC(=O)c2nn(C)cc2Br)nc2ccccc21 .
16.9

For the molecule Cc1nc2cc(NC(=O)Nc3cccc(F)c3)ccc2n1C , what inhibition (viability loss, TRAIL sensitization) is on record?
63.6

Bench note: what inhibition (viability loss, TRAIL sensitization) did Cn1c(-c2ccc(C(=O)c3ccccc3)s2)nc2ccccc21 show?
66.6

Endpoint output: inhibition (viability loss, TRAIL sensitization) of O=[N+]([O-])c1ccc2oc(-c3cccc(O)c3)nc2c1 . Value?
24.5

So what does the record say about inhibition (viability loss, TRAIL sensitization) for COc1ccc(S(=O)(=O)N2CCOCC2)cc1NC(=O)CC1CC2CCC1C2 (stereo not drawn) ?
-19.8

inhibition (viability loss, TRAIL sensitization) for Nc1ccccc1-c1nc2ccncc2[nH]1 ?
12.6

Any idea what inhibition (viability loss, TRAIL sensitization) was measured for CCCn1c(C)cc(C(=O)COC(=O)c2c(C)nn(-c3ccccc3)c2C)c1C ?
1.44

Requested read-out: inhibition (viability loss, TRAIL sensitization). Entry: Cc1c(CNCCc2ccccc2)c(C(=O)O)c(C)n1-c1ccccc1
-25.6

Which measured inhibition (viability loss, TRAIL sensitization) value corresponds to COc1ccc(CNC(=O)COC(=O)c2sccc2C)cc1OC ?
-16.5

Recorded inhibition (viability loss, TRAIL sensitization) of Cc1nc2nc[nH]n2c(=O)c1NC(=O)c1cccc(OCC(C)C)c1 , please.
-7.44

State the recorded inhibition (viability loss, TRAIL sensitization) for this entry: CS(=O)(=O)N(CC(=O)N1CCN(c2ccc(F)cc2)CC1)C1CCCCC1
-11.1

// query inhibition (viability loss, TRAIL sensitization) value for entry Cc1cc(O)ccc1NC1=CC(=O)CC(C)(C)C1
1.23

So what does the record say about inhibition (viability loss, TRAIL sensitization) for C=CCN(C(=O)Nc1ccc2c(c1)nc(C)n2C)c1ccccc1 ?
14.6

Param item = CCC(C(=O)Nc1c(C)cccc1C)n1c(-c2cc(C)cs2)nc2ccccc21 (stereo not drawn) ; retrieve measured inhibition (viability loss, TRAIL sensitization).
9.25

Given the molecule Cc1nc2ccccc2c(C)c1C(=O)c1ccc(F)cc1 , what is its reported inhibition (viability loss, TRAIL sensitization)?
2.13

# get_value(readout='inhibition (viability loss, TRAIL sensitization)', item= COCCN(C(=O)CSCc1ccc(C)cc1)c1c(N)n(CC(C)C)c(=O)[nH]c1=O )
-0.426

I am curious: what inhibition (viability loss, TRAIL sensitization) value has been reported for CC(C#N)OC(=O)c1cccnc1SCC(=O)Nc1ccc2c(c1)OCO2 (stereo not drawn) ?
4.56

Please report the recorded inhibition (viability loss, TRAIL sensitization) for COC(=O)Cc1[nH]n(-c2nc3ccccc3s2)c(=O)c1C(C)=Nc1ccc(OC)cc1 .
61.1

----------
assay-comment: viability loss with TRAIL in NB7+C8 cells, primary screen, TRAIL sensitizer project, cell-based, ATPlite luminescence (AID 624354)
measurement-parameters: at 10 µM
The campaign covered roughly 360,000 compounds. About 3,800 (1.1%) were called active.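 How the source made its calls: active means compounds causing at least 50% loss of cell viability in the single-dose screen, relative to plate controls; inactive means the rest.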 Shown is part of a subset that was picked to be rich in actives.
Outcomes you can answer with include only these: 1 (active), -1 (inactive)

Called result for Cc1ccc(NC(=O)c2ccc(Oc3ncccn3)cc2)cc1
-1

Which outcome was entered for the compound Cc1nc2ccccc2n1C(=O)N1CCOCC1 in this test?
-1

For COc1ccc(CN2C(=O)CN=C2Nc2ccc(C)cc2C)cc1 , what call appears in the results of this test?
-1

For this compound, state the assay outcome: CCc1nnc(NS(=O)(=O)c2ccc(NC(=O)c3cccc(OC(F)(F)C(F)F)c3)cc2)s1
-1

What call does the record list for Cc1c(Cl)c([N+](=O)[O-])nn1CC(=O)NCCCN1CCOCC1 ?
-1

Would you mind telling me which call this test gave O=C(O)c1ccc(N/N=C/c2ccc3ncccc3c2)cc1 ?
-1

Please indicate how the test categorized COc1cc2c(cc1OC)CN(C(=O)c1cc(S(=O)(=O)N3CCCCC3)ccc1Cl)CC2 .
-1

Test call for this compound, please: CN(C)CCCn1c(N)c(C#N)c2nc(C#N)c(C#N)nc21
-1

Call for entry O=C(O)c1ccc(N/N=C/c2cn(-c3ccccc3)nc2-c2cccs2)cc1 :
1

For CCOc1ccc(-c2cc(C(=O)N/N=C/c3ccc(O)cc3)c3ccccc3n2)cc1 , which call appears in the assay record?
1

Per the assay record, what outcome was assigned to C/C(=N\NC(=O)c1cc(-c2ccc(O)cc2)nc2ccccc12)c1cccnc1 ?
-1

----------
assay-comment: viability loss with TRAIL in NB7+C8 cells, primary screen, TRAIL sensitizer project, cell-based, ATPlite luminescence (AID 624354)
measurement-parameters: at 10 µM, stronger effect = higher value
Hit rate of the full screen: of about 360,000 compounds, about 3,800 (1.1%) were called active. For the sample, actives were picked, then their nearest neighbours and some compounds at random.
test-readout: inhibition (viability loss, TRAIL sensitization) (%)
State just the number; it will be interpreted in %.

Param item = CCCCC(O)(CCCC)C(=O)NN(C(=O)CCl)c1ccccc1 ; retrieve measured inhibition (viability loss, TRAIL sensitization).
82.8

Could you share which inhibition (viability loss, TRAIL sensitization) value was measured for COc1ccc(C(=O)NC(C)c2nccs2)cc1OC1CCN(C(C)C)CC1 (stereo unspecified) ?
-24.4

# get_value(readout='inhibition (viability loss, TRAIL sensitization)', item= CCn1cc(CNC(=O)c2cc([N+](=O)[O-])c(C)c([N+](=O)[O-])c2)cn1 )
24.5

Please look up its inhibition (viability loss, TRAIL sensitization): COc1ccc(C2=Nc3cc(C)ccc3OC2)cc1
58.6

Any idea what inhibition (viability loss, TRAIL sensitization) was measured for COc1cc(/C=N/N=C(\N)c2nonc2N)cc(OC)c1OC ?
36.5

Fill blank: measured inhibition (viability loss, TRAIL sensitization) of the compound COC(=O)c1ccccc1N=Nc1c(C)[nH][nH]c1=O is ____.
-4

Which inhibition (viability loss, TRAIL sensitization) value is on record for O=C(CCc1ccccc1)NCCc1cccs1 ?
-4.77

What inhibition (viability loss, TRAIL sensitization) value was documented for this compound, COc1ccc(C(=O)NC(Cc2ccc(OC(=O)c3ccc(OC)cc3)cc2)C(=O)O)cc1 (stereo unspecified) ?
7.3

Which inhibition (viability loss, TRAIL sensitization) value is on record for CCc1c(C)c2ccc(OC3CCCCC3=O)cc2oc1=O (stereo unspecified) ?
-0.131

Suppose we examine the compound CCCC(O)(CCC)C(=O)NN(C(=O)CCl)c1cccc(C)c1 ; what inhibition (viability loss, TRAIL sensitization) value has been reported?
5.97

Param item = COc1cccc(-n2c(=O)c3c(C)c(C(=O)N(C)C)sc3n(CC(=O)NCCc3ccc(OC)c(OC)c3)c2=O)c1 ; retrieve measured inhibition (viability loss, TRAIL sensitization).
-6.94

----------
assay-comment: viability loss with TRAIL in NB7+C8 cells, primary screen, TRAIL sensitizer project, cell-based, ATPlite luminescence (AID 624354)
measurement-parameters: at 10 µM
Among all 360,000 compounds or so, about 3,800 (1.1%) were called active.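 The calls were made as follows: active = compounds causing at least 50% loss of cell viability in the single-dose screen, relative to plate controls; inactive = the rest.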 For the sample, actives were picked, then their nearest neighbours and some compounds at random.
Respond only with the outcome that fits, drawn from 1 = active, -1 = inactive

Assay result, entry FC(F)(F)Oc1ccc(-c2cn3cccnc3n2)cc1 — outcome?
-1

Which outcome was entered for the compound Cc1ccc(-c2cc(C(=O)N/N=C/C=C/c3ccco3)c3ccccc3n2)cc1C in this test?
1

Outcome? COc1ccc(-c2cn3ccsc3n2)cc1
1

Look up the recorded call for CCCCC(=O)Nc1ccc2c(c1)C(=O)NC2=O in this test.
-1

For this compound, state the assay outcome: O=C1C[C@@H]2c3c(cccc3CN1Cc1ccccc1)C[C@@H](O)[C@H]2O
-1

Hello, I am checking results. What call was entered for O=C(Nc1nc2ccc([N+](=O)[O-])cc2s1)c1ccncc1 ?
1

Tell me the recorded outcome of this test for O=C(c1cccs1)N1C[C@H](n2cc(C3CC3)nn2)[C@@H](O)C[C@@H]1c1ccccc1 .
-1

Dear colleague, could you share the recorded outcome for COc1ccc(COC(=O)c2n[nH]c3ccccc23)cc1F when you have a moment?
-1

Query: recorded result category for CSCCC(NS(=O)(=O)c1ccccc1F)C(=O)N1CC=C(c2ccccc2)CC1 (stereo not given) in this test
-1

Dear all, I need the recorded test outcome for COc1ccc([C@H]2CC(=O)C[C@@H](CCn3cc(CC4CCCC4)nn3)O2)cc1 , thank you.
-1

Recorded call for CCOC(=O)C1CCN(C(=O)C2CCN(S(=O)(=O)CC)CC2)CC1 ?
-1

Each compound tested received a call. Report the one for CC(C)CNC(=O)COC(=O)c1ccccc1OCC(=O)Nc1ccc(Br)cc1 .
-1

Record lookup: outcome of this test for CC(C)OC(=O)c1ccc(NCc2cc(O)ccc2O)cc1Cl ?
1

Can you look up the reported call for COc1ccc(N2CCN(C(CNS(=O)(=O)c3ccc(C)cc3)c3ccccc3)CC2)cc1 (stereo not given) for me?
-1

Returns: the outcome recorded for Cc1ccc(S(=O)(=O)NCc2cn3ccsc3n2)c(C)c1 in this assay.
-1

Hi team, can someone confirm the assay call for CCN(CC)S(=O)(=O)c1ccc(N2CCOCC2)c(NC(=O)C2CSC3(C)CCC(=O)N23)c1 (stereo not given) ?
-1

GET /call?item= CCCCN(CC)C(=O)CN(C)S(=O)(=O)c1cccc2nsnc12 returns the recorded outcome of this test.
-1

# fetch the recorded call for CCCc1cc(=O)[nH]c(SCC(=O)c2c(N)n(CC(C)C)c(=O)n(C)c2=O)n1 here
1

Status in this test for N#Cc1ccc(C(=O)Nc2nc(-c3cccs3)c(C(=O)C(F)(F)F)s2)cc1 ?
1

Hey, what did the test say about Cn1c(SCC(=O)Nc2ccc(Br)cc2F)nnc1-c1ccco1 ?
-1

Lab log entry: CC(C)Cn1c(N)c(C(=O)COC(=O)CN2C(=O)C3CC=CCC3C2=O)c(=O)n(C)c1=O (stereo not given) — outcome as called in the assay?
-1

Tell me the recorded outcome of this test for CNCC(O)c1ccc(O)c(O)c1 (stereo not given) .
-1

Each compound tested received a call. Report the one for O=C(NC1=CC(=O)c2ccccc2C1=O)c1ccccc1 .
1

Outcome logged for Cn1c(-c2ccco2)nc2cc3ccccc3cc21 in this assay:
1

Returns: the outcome recorded for CCCc1cc(=O)[nH]c(SCC(=O)N2C(C)CCCC2C)n1 (stereo not given) in this assay.
-1

In this assay, the call recorded for Cc1ccc(C(=O)N/C(=C/c2ccco2)C(=O)NCCc2c[nH]c3ccccc23)cc1C was what?
-1

Call for entry COc1ccc(/C=N/N=C/c2c[nH]c(=O)c(C#N)c2Nc2ccccc2)cc1 :
-1

Field: outcome | Entry: CCOc1cc(N2CCOCC2)c(OCC)cc1NC(=O)COc1cccc2cccnc12
1

Kindly provide the recorded test outcome for the following compound: C/C(=N\NC(=O)c1ccc(C)cc1)C1C(=O)c2ccccc2C1=O
-1

Which outcome did this test record for the compound CCn1cc(-c2cc(C(=O)O)on2)c(C)n1 ?
-1

Any idea what this test logged for CC1CC(C)CN(CC(=O)N2c3ccccc3CCc3ccccc32)C1 (stereo not given) ?
-1

In this assay, the call recorded for Cc1cc(C)cc(OCC(=O)Nc2ccc(N3CCOCC3)cc2N2CCOCC2)c1 was what?
-1

Just curious, what result did COc1cc(/C=C2\Oc3ccc(C#Cc4ccc(O)cc4)cc3C2=O)cc(OC)c1 get here?
1

What is the recorded call for this compound in the test? CCOc1cc(N2CCOCC2)c(OCC)cc1NC(=O)C1=NN(c2cccc(C)c2)C(=O)CC1
-1

Record lookup: outcome of this test for CCN(CC(=O)Nc1c(F)cccc1F)C(=O)C1CCC1 ?
-1

Name the outcome recorded for COc1ccc(-n2cnc3cc(NCc4ccco4)ccc32)cc1 in the assay.
-1

Could you please tell me the result logged for COc1cc(OC)cc(-c2nc(=S)n3ccsc3n2)c1 in this assay?
-1

# outcome recorded in this test, key = CC1C(C)N(C(=O)CCl)c2ccccc2N1C(=O)CCl (stereo not given)
1

So what was the verdict on CCC(C)c1ccc(O)c(/C=N/O)c1 (stereo not given) in this test?
1

Outcome logged for COc1ccc(-c2cn3ccc(C)cc3n2)cc1 in this assay:
1

Field: outcome | Entry: CC1(C(=O)NCc2ccco2)Cc2c(-c3ccc4c(c3)OCO4)ccnc2O1 (stereo not given)
-1

For CCN(CC)CCCC(C)n1c2nc(=O)[nH]c(=O)c-2nc2cc(Cl)ccc21 (stereo not given) , what call appears in the results of this test?
1

Given CCN(C(=O)COc1cccnc1[N+](=O)[O-])C1CCS(=O)(=O)C1 (stereo not given) , state the outcome it received in this test.
-1

Returns: the outcome recorded for CC1C(=O)N(Cc2ccccc2)c2ccccc2N1C(=O)c1ccccc1 (stereo not given) in this assay.
-1

Record request — test call for C#CCNc1ccc(C(=O)OCC)cc1
-1
